protocol: soluble on expression in E. coli; label from the status in PepcDB or PDB records
assay_metric: soluble on expression in E. coli

Consider the following illustrative entries.
[[record]]
primary_sequence = "GMKGISHRIAIPLILEVGNNKIYNIGQIIKKGNFKRVSLYFGEGIYELFGETIEKSIKSSNIEIEAVETVKNIDFDEIGTNAFKIPAEVDALIGIGGGKAIDAVKYMAFLRKLPFISVPTSTSNDGFSSPVASLLINGKRTSVPAKTPDGIVVDIDVIKGSPEKFIYSGIGDLVSNITALYDWKFEEENHKSIIDDFAVMISKKSVNSFVRTDFKSIKDEVFLKELVDSLTMNGIAMEIAGNSSPASGAEHLISHALDKFLPNPQLHGIQVGVATYIMSKVHKHREERIKKILSDTGFFNYVKGLNMKKSDFKRAISEAHLIKPARYTYLHVEKNCETAKEIVDTDEILRNILV"
assay_metric = "soluble on expression in E. coli"
result = "soluble"

[[record]]
primary_sequence = "MSVARHTQILPSVLDRLLDDEPDQSHIESISLFELPQFKRALARDLEALLNTRLMPLDELMESFPQARDSLLTFGIPDLSGISLLNPDDRELLREQLRRSIELHEPRLSRVRVNLDAPREMERHLRFRVDAVLKVHPHRPPVTFDATLQLSSNVYKVQG"
assay_metric = "soluble on expression in E. coli"
result = "not soluble"

[[record]]
primary_sequence = "MVKKVLLINGPNLNLLGTREPEKYGTTSLSDIEQAAIEQAKLKNNDSEVLVFQSNTEGFIIDRIHEAKRQGVGFVVINAGAYTHTSVGIRDALLGTAIPFIEVHITNVHQREPFRHQSYLSDKAVAVICGLGVYGYTAAIEYALNY"
assay_metric = "soluble on expression in E. coli"
result = "soluble"

[[record]]
primary_sequence = "MNSLSTEQLGIGYGDRVIVEDLNISIPKGKITTLIGPNGCGKSTILKTMSRIMRSHAGAVYLNGKAIHKMSTKDIAKDMAILPQTPEAPSGLTVHELVSYGRFPHQSGFGRLNDEDRRIIKWALEETGMAEYAERPIEALSGGQRQRVWIAMALAQGTELLLLDEPTTYLDLAHQLEILQLLDRLNKEQGRTILMVIHDLNHAARFSHYMIALKKGTVIKEGTALEVMTPDILKQVFQIDAEIVTDPRTNKPVCLTYDLIKNEKELVTV"
assay_metric = "soluble on expression in E. coli"
result = "not soluble"

[[record]]
primary_sequence = "MGSDKIHHHHHHMATTIKNRYEFVLFFDVENGNPNGDPDADNMPRIDPETSFGLVSDVCIKRKIRNYVALLKENEDDYQIYVQEKAVLNNQHKKAYEHFKIKPESKKLPKDTAQAEAITQFMCKNFYDIRTFGAVMTTEVNCGQVRGPVQLGFSRSLDPIVPQEITITRMAVTNERDLEKERTMGRKHIVNYALYRAEGFISAPLADKTGFSEEDLELLWDALINMFDHDRSAARGKMSSRKLYVFKHDSKLGNAPASILFDAITVKKINGNKPVRNFSDYEISVTGNEIPQGVEVLELL"
assay_metric = "soluble on expression in E. coli"
result = "not soluble"

[[record]]
primary_sequence = "MGSDKIHHHHHHMSNVDRAEIAKFEALAHRWWDRESEFKPLHEINPLRVNWIDERVSLAGKKVLDVGCGGGILSEAMALRGATVTGIDMGEAPLAVAQLHQLESGVQVEYRQITAEALAEEMPEQFDVVTCLEMLEHVPDPSSVIRACYRMVKPGGQVFFSTINRNPKAYLLAIVGAEYILKMLPRGTHDFKKFIRPSELGAWSRDAGLQVKDIIGLTYNPLTKHYKLNSDVDVNYMIQTLREE"
assay_metric = "soluble on expression in E. coli"
result = "not soluble"

[[record]]
primary_sequence = "MDPLLTVLKERMRACQRRVSDRPRRQVVAIEWIDPPMASGNWIPELIALAGGENMLGTAGKHSPYIEWSTLLAIDPEVILVMPCGFDLERTRQELDQALQTYPQWQQLRALQTGQLYILDGNAYFNRPGPRLVDSLEILVEILHPCPLEHHHHHH"
assay_metric = "soluble on expression in E. coli"
result = "soluble"

[[record]]
primary_sequence = "MAHHHHHHMYTHTHTHTHTHTCTHMYLSSTLHRVFSPLVASPPQKEVGSKSNARGGKRVWRKGLASWEPQAGTHAHAHAQTDAEGYLQRTRRKPRPPAHASSLSPPLLLGRSRMGYTRERTNRHFFVSRANAFFSRLPISRIQRALAMEAIKKGSMKPWKHTKEQIIGSPITCNFEYNPRPVRLIGTVMDAHTEETSIKGGLKVYARSEEANMMLWIPAGNPKLKYEVTAAKGSFEHYLDERSKWDEAWLTGRARMK"
assay_metric = "soluble on expression in E. coli"
result = "soluble"

[[record]]
primary_sequence = "GMQDERWNHPLYTTTAINDEELEGHAYIPGGLKVQTSSPMNDHPGTNPEQLLGLSLSTCLEATLEAVEKEHGLPHTGAVRVKVAFIGARAEYQFLVHAQVMVKGVDFDTAKAFTNEIENRCPVSKLLKNSGNYTIETVTDFKD"
assay_metric = "soluble on expression in E. coli"
result = "soluble"

[[record]]
primary_sequence = "MSLSSRYTPSEMAQALGAGLLSFPVTHFDADMAFDEPAYRSNLDWLSSHPAAGLFAAGGTGELFSLTLDEVDRAVRAAVTQTAGRMPVIAPAGYGTAIAVAMAQAAERNDADGILLFPPYLTECDADGVAEHVERVCKATSLGVIVYGRANARLDDVALARVAERCPNLVGYKDGIGDVERMTRIYARLGDRLLYVGGLPTAETFALPYLEMGVTTYSSAIFNFLPEWALSFYAAVRARDHATIYRELNDFVLPYTVLRNRRAGYAVSIVKAGMRAVGRPAGPVRTPLADLTEDEFAQLTQLIGGRREGHHHHHH"
assay_metric = "soluble on expression in E. coli"
result = "not soluble"


Exercise: Fill blank: measured soluble on expression in E. coli of the sequence MGSDKIHHHHHHMEQLPILNLSDWHAGGQSRHAFITKLADAARRIGFFYLTGHGIELARQQQVLLLARDFFALPLADKLAVKMTNTPHFRGYTRLQGELTLGKPDLREQFDIMQEETANPPRSDVPKWSQLQGPNQWPSQLPQMKTILLEWQQDLADTSVALLKALAVALEQSETAFDATIDAGPYQHMKLIRYPNANGETSGQGVGAHKDPGYLTLVLQDKQSGLEVQTDEGWLSIPPLEGAFVVNIGELLELASNGYLKATYHRVTSPPAGVERYSCAFFMAAQLNATVPLLPLPEYLARQALGPASDPLNPLFHQVGQNVLKGRLRSHPDVAKAHYASFANAI is ____.
Solution: not soluble

Exercise: Please give the measured soluble on expression in E. coli for this sequence: MIHYRMDQPDRVRCSVCGGIADEVDETYPEEGDFILVIYRCRDCGHLEKRQYGKPVKIID
Solution: not soluble

Exercise: Which soluble on expression in E. coli value belongs to MSTDPEEFDQAETLDQLAYEIILLTRYGVQNTPTNKREAIMDRSALILLTRLDAQGPMTVNELAESFGLNVSTVHRQLKAAIANGLIEVVDDQACPAKLHRPTELGKEKLQQELLARQQDLTRILHDWDEEDIKTHAKLLRKHNESLEEYLDMKWPRP ?
Solution: not soluble
